- measurement description: Molar enthalpy of transition or fusion
- experimental setup: Crystal; DSC
Listing of recorded Molar enthalpy of transition or fusion by entry.
Express your answer in kcal/mol, writing the number without its unit.

Observe how each entry below is paired with its result.
- compound: "Cc1ccc(C(C)C)c(O)c1 [3-methyl-6-isopropylphenol]"
  readout units: "kcal/mol"
  Molar enthalpy of transition or fusion: 3.11
- compound: "CCCCCCCCCCCCCC(=O)OCC(COC(=O)CCCCCCCCCCCCC)OC(=O)CCCCCCCCCCCCC [1,2,3-propanetriyl tri(tetradecanoate)]"
  readout units: "kcal/mol"
  Molar enthalpy of transition or fusion: 34.5
- compound: "CC(C)[C@@H]1CC[C@@H](C)C[C@H]1O [L-menthol]"
  readout units: "kcal/mol"
  Molar enthalpy of transition or fusion: 2.85
- compound: "CCCCCCCCCCCCCCCCCC(=O)OCC(COC(=O)CCCCCCCCCCCCCCCCC)OC(=O)CCCCCCCCCCCCCCCCC [glycerol trioctadecanoate]"
  readout units: "kcal/mol"
  Molar enthalpy of transition or fusion: 44

Attention now shifts to the item below.
Noted for CCCCCCCCCCCCCCCC(=O)OCC(COC(=O)CCCCCCCCCCCCCCC)OC(=O)CCCCCCCCCCCCCCC [1,2,3-propanetriyl tri(hexadecanoate)] : its Molar enthalpy of transition or fusion reads 37.9

---

- experimental setup: Crystal; DSC
Listing of recorded Triple point temperature by entry.
Express your answer in K, writing the number without its unit.

- compound: "Cc1ccc(C(C)C)c(O)c1 [3-methyl-6-isopropylphenol]"
  readout units: "K"
  Triple point temperature: 321.9
- compound: "CCCCCCCCCCCCCC(=O)OCC(COC(=O)CCCCCCCCCCCCC)OC(=O)CCCCCCCCCCCCC [1,2,3-propanetriyl tri(tetradecanoate)]"
  readout units: "K"
  Triple point temperature: 329.4
- compound: "CCCCCCCCCCCCCCCC(=O)OCC(COC(=O)CCCCCCCCCCCCCCC)OC(=O)CCCCCCCCCCCCCCC [1,2,3-propanetriyl tri(hexadecanoate)]"
  readout units: "K"
  Triple point temperature: 336.8

Noted for CCCCCCCCCCCCCCCCCC(=O)OCC(COC(=O)CCCCCCCCCCCCCCCCC)OC(=O)CCCCCCCCCCCCCCCCC [glycerol trioctadecanoate] : its Triple point temperature reads 343.8

Noted for CC(C)[C@@H]1CC[C@@H](C)C[C@H]1O [L-menthol] : its Triple point temperature reads 314.4
